This section presents molecules with their documented inhibition values.
Molecular target: Tyrosinase (Agaricus bisporus) (UniProt O42713);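 also: inhibition measured at 10 min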
Sequence (whole entry): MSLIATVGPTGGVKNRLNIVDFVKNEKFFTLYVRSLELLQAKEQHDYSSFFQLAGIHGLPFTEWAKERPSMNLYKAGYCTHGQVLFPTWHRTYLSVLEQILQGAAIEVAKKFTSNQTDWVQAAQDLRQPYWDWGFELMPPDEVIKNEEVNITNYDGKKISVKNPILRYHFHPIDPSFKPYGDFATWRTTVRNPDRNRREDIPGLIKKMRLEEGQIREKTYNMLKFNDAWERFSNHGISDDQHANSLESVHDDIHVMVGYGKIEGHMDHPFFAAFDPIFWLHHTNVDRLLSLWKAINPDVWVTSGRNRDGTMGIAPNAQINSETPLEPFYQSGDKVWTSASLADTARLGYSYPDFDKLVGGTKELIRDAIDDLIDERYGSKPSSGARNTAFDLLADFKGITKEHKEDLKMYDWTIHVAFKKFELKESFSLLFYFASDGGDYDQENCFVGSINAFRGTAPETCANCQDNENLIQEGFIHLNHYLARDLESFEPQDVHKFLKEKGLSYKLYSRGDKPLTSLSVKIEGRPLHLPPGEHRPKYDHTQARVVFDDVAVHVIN
Settings: at 1 mM

Worked set:
{"columns": ["SMILES_STRING", "STUDY_TARGET", "inhibition"],
 "data": [
  ["O=C(O)c1ccc2ccccc2n1", "Tyrosinase (Agaricus bisporus) (UniProt O42713)", "58%"],
  ["O=c1occcc1O", "Tyrosinase (Agaricus bisporus) (UniProt O42713)", "77%"],
  ["CC(=O)CC(C)=O", "Tyrosinase (Agaricus bisporus) (UniProt O42713)", "77%"],
  ["CCn1ccc(=O)c(O)c1C", "Tyrosinase (Agaricus bisporus) (UniProt O42713)", "9%"],
  ["O=C(O)c1cccc2cccnc12", "Tyrosinase (Agaricus bisporus) (UniProt O42713)", "-2%"],
  ["O=C(O)c1cc(F)ccc1O", "Tyrosinase (Agaricus bisporus) (UniProt O42713)", "98%"]
]}

Reported inhibition for `O=C(O)c1nc(Cl)ccc1Cl` : what is it?
96%

Now consider `O=C(O)c1ccc2cccc(O)c2n1` and answer again.
75%

Can you handle `[O-][n+]1ccccc1S` next?
81%
